Value source: paper PMC7826789

Would you kindly list Percent Control for each of these molecules?
Test system: IRAK4
experimental_conditions: Compound Concentration (nM):1000;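 also: KINOMEscan scanMAX binding as percent activity remaining versus control; lower means stronger binding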
Give bare numbers, in %.

Would you please look over these solved cases?
CC1=C(C(=O)Nc2ccc3[nH]ncc3c2)C(c2ccc3ccccc3c2)CC(=O)N1 (centres unmarked) [GSK270822A] | 100
COc1ccc2[nH]c3c4[nH]c5ccc(OC)cc5c4c4c(c3c2c1)C(=O)NC4=O [GW296115X] | 76
Nc1ncnc2occ(-c3ccc(NC(=O)Nc4cc(C(F)(F)F)ccc4F)cc3)c12 [GW770249X] | 100
CCS(=O)(=O)c1ccc(OC)c(Nc2ncc(-c3cccc(F)c3)o2)c1 [GW621970X] | 61
NS(=O)(=O)c1ccc(N/N=C2\C(=O)Nc3ccc(C(=O)NCCc4c[nH]cn4)cc32)cc1 [GW300660X] | 99
COc1ccc2c(-c3ccnc(Nc4cccc(OC(F)(F)F)c4)n3)cnn2n1 [GW810372X] | 100
Cl.O=C(Nc1ccc(Oc2ccc3[nH]c(NC(=O)c4ccco4)nc3c2)cc1)Nc1cc(C(F)(F)F)ccc1F [GW683134A] | 89

Here's the next entry for you.
### Prompt Given the molecule Cl.O=C(Nc1ccc(Oc2ccc3[nH]c(NC(=O)c4ccccc4)nc3c2)cc1)Nc1cc(C(F)(F)F)ccc1F [GW709042A] , what is its reported Percent Control?
### Response 86

* * *

Tested on: SRPK3
experimental_conditions: Compound Concentration (nM):1000
Would you kindly list Percent Control for each of these compounds?
Give bare numbers, in %.

C[C@@H](Oc1cc(-n2cnc3ccc(OC4CCN(C)CC4)cc32)sc1C(N)=O)c1ccccc1Cl [GSK579289A] | 100
O=C1Nc2ccc(C(=O)c3ccco3)cc2C1=Cc1cc(Cl)c(O)c(Cl)c1 [GW406108X] | 100
CCS(=O)(=O)c1ccc(OC)c(Nc2ncc(-c3cccc(OC)c3)o2)c1 [GW580509X] | 100
COc1cccc(-c2c[nH]c3c(N/N=C/c4ccncc4)ncnc23)c1 [GW814408X] | 60

Here's the next entry for you.
### Prompt Given the compound CC(C)COC(=O)c1ccc2c(c1)/C(=C/Nc1ccc(S(N)(=O)=O)cc1)C(=O)N2 [GW416981X] , what is its reported Percent Control?
### Response 100

* * *

Would you kindly list Percent Control for each of these compounds?
System: ABL1(Q252H)-phosphorylated
experimental_conditions: Compound Concentration (nM):1000
One number for each entry, in %.

Would you please look over these solved cases?
CC1=C(C(=O)Nc2ccc3[nH]ncc3c2)C(c2ccc3ccccc3c2)CC(=O)N1 (stereo not shown) [GSK270822A] | 84
COc1cccc(-n2ncc3c(N/N=C/c4ccncc4)ncnc32)c1 [GW784752X] | 1.7
NS(=O)(=O)c1ccc(N/N=C2\C(=O)Nc3ccc(C(=O)NCc4ccncc4)cc32)cc1 [GW300657X] | 72

Could you tell me Percent Control for each of these compounds? They are listed below.
1. CCn1c(-c2nonc2N)nc2c(C#CC(C)(C)O)nc(OCCNC)cc21.Cl [GSK949675]
2. O=C(Nc1n[nH]c2nc(-c3ccc(O)cc3)c(Br)cc12)C1CC1 [SB-725317]

### Response
[96, 37]

Could you tell me Percent Control for each of these compounds? They are listed below.
1. COc1ccc2[nH]c3c4[nH]c5ccc(OC)cc5c4c4c(c3c2c1)C(=O)NC4=O [GW296115X]
2. NS(=O)(=O)c1ccc(Nc2ncc(-c3ccccc3)o2)cc1 [GW572399X]

### Response
36
100

* * *

Would you kindly list Percent Control for each of these molecules?
Test system: AMPK-alpha1
Construct: gene PRKAA1
experimental_conditions: Compound Concentration (nM):1000
Answers are plain numbers, in %.

CCn1c(-c2nonc2N)nc2c(C#CC(C)(C)O)nc(OCCNC)cc21.Cl [GSK949675] | 100
Cl.O=C(Nc1ccc(Oc2ccc3[nH]c(NC(=O)c4ccccc4)nc3c2)cc1)Nc1cc(C(F)(F)F)ccc1F [GW709042A] | 56
NS(=O)(=O)c1ccc(N/N=C2\C(=O)Nc3ccc(C(=O)NCCc4c[nH]cn4)cc32)cc1 [GW300660X] | 100

Here's the next entry for you.
### Prompt Given the molecule CCc1ccc(Oc2nccc(-c3c(-c4ccc(F)cc4)ncn3C3CCNCC3)n2)cc1 [SB-242719] , what is its reported Percent Control?
### Response 100

* * *

System: FES
experimental_conditions: Compound Concentration (nM):1000
property_measured: Percent Control (%)
Answers are plain numbers, in %.

Would you please look over these solved cases?
NS(=O)(=O)c1ccc(N/N=C2\C(=O)Nc3ccc(C(=O)NCCc4c[nH]cn4)cc32)cc1 [GW300660X] | 100
NS(=O)(=O)c1ccc(N/N=C2\C(=O)Nc3ccc(Cl)cc32)cc1 [GW280670X] | 100
CCc1ccc(Oc2nccc(-c3c(-c4ccc(F)cc4)ncn3C3CCNCC3)n2)cc1 [SB-242719] | 97
Cc1cc(O)cc(C)c1/C=C/c1cncc(C(N)=O)c1 [GW435821X] | 100
COc1cccc(-c2c[nH]c3c(N/N=C/c4ccncc4)ncnc23)c1 [GW814408X] | 100

Could you tell me Percent Control for each of these compounds? They are listed below.
1. CCS(=O)(=O)c1ccc(OC)c(Nc2ncc(-c3cccc(F)c3)o2)c1 [GW621970X]
2. NS(=O)(=O)c1ccc(N/N=C2\C(=O)Nc3ccc(-c4cnco4)cc32)cc1 [GW276655]
3. COc1ccc(COc2ccc(Cc3cnc(N)nc3N)cc2OC)cc1 [GW632580X]
4. CC1=C(C(=O)Nc2ccc3[nH]ncc3c2)C(c2ccc3ccccc3c2)CC(=O)N1 (stereo not drawn) [GSK270822A]

### Response
100
86
82
84

* * *

Would you kindly list Percent Control for each of these molecules?
Tested on: PAK1
experimental_conditions: Compound Concentration (nM):1000
Numbers only, in %.

Would you please look over these solved cases?
CCn1c(-c2nonc2N)nc2c(C#CC(C)(C)O)nc(OCCNC)cc21.Cl [GSK949675] | 100
COc1cc2ncn(-c3cc(O[C@H](C)c4ccccc4Cl)c(C(N)=O)s3)c2cc1OC [GSK237701A] | 98
CN(C)CCNC(=O)Nc1ccc(N(C)c2ccnc(Nc3ccc(CS(C)(=O)=O)cc3)n2)cc1.Cl [GW830900A] | 99

Here's the next entry for you.
### Prompt Given the molecule NS(=O)(=O)c1ccc(N/N=C2\C(=O)Nc3ccc(C(=O)NCCc4c[nH]cn4)cc32)cc1 [GW300660X] , what is its reported Percent Control?
### Response 100

* * *

Tested on: PLK3
experimental_conditions: Compound Concentration (nM):1000
property_measured: Percent Control (%)
Give bare numbers, in %.

Would you please look over these solved cases?
Nc1ncnc2occ(-c3ccc(NC(=O)Nc4cc(C(F)(F)F)ccc4F)cc3)c12 [GW770249X] | 16
Cl.c1ccc(Cc2nc3ccc(Nc4ncnc5ccccc45)cc3[nH]2)cc1 [GR269666A] | 100
NS(=O)(=O)c1ccc(N/N=C2\C(=O)Nc3ccc(C(=O)NCCc4c[nH]cn4)cc32)cc1 [GW300660X] | 76
COc1cc(N2CCN(C(C)C)CC2)ccc1Nc1nc(Nc2ccc(F)cc2C(=O)NC[C@@H](O)CO)c2cc[nH]c2n1 [GSK1392956A] | 96
COc1cc(C)c(N(C)C(=O)CN(C)C)cc1Nc1nc(Nc2cccc(F)c2C(N)=O)c2cc[nH]c2n1 | 94
CCS(=O)(=O)c1ccc(OC)c(Nc2ncc(-c3cccc(F)c3)o2)c1 [GW621970X] | 100
Cc1cc(O)cc(C)c1/C=C/c1cncc(C(N)=O)c1 [GW435821X] | 90

Here's the next entry for you.
### Prompt Write down the reported Percent Control of O=C1Nc2ccc(C(=O)c3ccco3)cc2C1=Cc1cc(Cl)c(O)c(Cl)c1 [GW406108X] , test system: PLK3.
### Response 37

* * *

Test system: PKMYT1
experimental_conditions: Compound Concentration (nM):1000
property_measured: Percent Control (%)
One number for each entry, in %.

Would you please look over these solved cases?
C/C(Nc1ccc(S(N)(=O)=O)cc1)=C1/C(=O)Nc2ccccc21 [GW335962X] | 91
C[C@@H](Oc1cc(-n2cnc3ccc(OC4CCN(C)CC4)cc32)sc1C(N)=O)c1ccccc1Cl [GSK579289A] | 81
CCS(=O)(=O)c1ccc(OC)c(Nc2ncc(-c3cccc(OC)c3)o2)c1 [GW580509X] | 100
COc1cc(C=NNc2ncnc3c2cnn3-c2ccccc2)ccc1O [GW513184X] | 100
COc1ccccc1-c1cc(/C=C2\C(=O)Nc3ncc(Br)cc32)cc(Br)c1O [GW442130X] | 100

Could you tell me Percent Control for each of these compounds? They are listed below.
1. COc1cc2ncnc(Nc3ccc4c(cnn4Cc4ccccc4)c3)c2cc1OC.Cl [GW282449A]
2. CN1CCN(C(=O)c2ccc(NC(=O)Nc3ccc(N(C)c4ccnc(Nc5ccc(CS(C)(=O)=O)cc5)n4)cc3)cc2)CC1.Cl [GW830263A]

### Response
1: 100; 2: 96

### Prompt Given the compound NS(=O)(=O)c1ccc(N/N=C2\C(=O)Nc3ccc(Cl)cc32)cc1 [GW280670X] , what is its reported Percent Control?
### Response 100
